This collection of values is drawn from ChEMBL document CHEMBL4765370.

# test: AUCall in C57 Black mouse liver at 10 mg/kg, iv
# Type: ADME, organism-based
# Design: dose 10 mg/kg
quantity-kind: AUC (ng·h/mL)
Express it in ng·h/mL; write the number only.

Input line: Bench note: what AUC did `O=C(CCCc1cccs1)N1CCN(c2ccc(C(F)(F)F)cc2)CC1` show?
Output line: 487

----------
# test: Half life in mouse microsomes at 1 uM up to 120 mins by HPLC/MS-MS analysis
# Type: ADME, Microsome
quantity-kind: half-life at 1 µM (min)
Write the answer as a number in min, unit excluded.

Input line: If you can, please state the reported half-life at 1 µM value of `O=C(CCCc1cccs1)N1CCN(c2ccc(C(F)(F)F)cc2)CC1` .
Output line: 6
